experiment: Toxicity against mouse RAW264.7 cells assessed as cell survival at 50 uM by SRB assay; format: cell-based; conditions: read-out: Survival
quantityKind: viability at 50 µM (%)
One number for each entry, in %.

Worked cases, answers included:
CC(=O)OC1C[C@H](O)CC2=CC[C@H]3[C@@H]4CC[C@H]([C@@](C)(O)[C@@H](O)C[C@@H]5COC(=O)[C@@H]5C)[C@@]4(C)CC[C@@H]3[C@]21C (stereo partly drawn) = 95.3
CC1=C(C)C(=O)O[C@@H]([C@](C)(O)C2=CC[C@@]3(O)[C@@H]4C[C@H]5O[C@]56[C@@H](O)CCC(=O)[C@]6(C)[C@H]4CC[C@]23C)C1 = 100

Now, please, on to the next molecule.
Q: Kindly indicate its recorded viability at 50 µM. Item: CC1=C(C)C(=O)O[C@@H]([C@](C)(O)[C@]2(O)CC[C@@]3(O)[C@@H]4[C@@H](O)[C@@H](O)[C@@]5(O)CC=CC(=O)[C@]5(C)[C@H]4CC[C@]23C)C1
A: 90.4

* * *

I'd appreciate it if you could supply IC50 values for the items below.
test system: RAW264.7; assay: Inhibition of lipopolysaccharide-induced nitric oxide production in mouse RAW264.7 cells pre-incubated for 30 mins before LPS stimulation for 20 hrs by Griess reagent based assay; assay type: functional, cell-based
Returns: string containing the numeric result and its unit.

CC1=C(C)C(=O)O[C@@H]([C@](C)(O)[C@]2(O)CC[C@@]3(O)[C@@H]4C[C@H]5O[C@]56[C@@H](O)[C@@H](O)CC(=O)[C@]6(C)[C@H]4CC[C@]23C)C1 = 7.8 µM
CNC(=N)NCCC[C@H](N)C(=O)O [TILARGININE] = 23.5 µM
CC1=C(C)C(=O)O[C@@H]([C@](C)(O)C2=CC[C@@]3(O)[C@@H]4C[C@H]5O[C@]56[C@@H](O)CCC(=O)[C@]6(C)[C@H]4CC[C@]23C)C1 = 14.6 µM
CC1=C(C)C(=O)O[C@@H]([C@](C)(O)[C@]2(O)CC[C@@]3(O)[C@@H]4C[C@H]5O[C@]56[C@@H](O)C=CC(=O)[C@]6(C)[C@H]4CC[C@]23C)C1 = 0.32 µM
CC1=C(C)C(=O)O[C@@H]([C@](C)(O)[C@]2(O)CC[C@@]3(O)[C@@H]4C[C@H](O)C5=CC=CC(=O)[C@]5(C)[C@H]4CC[C@]23C)C1 = 2.4 µM

List reported IC50 for each of these compounds:
1. CC1=C(C)C(=O)O[C@@H]([C@](C)(O)[C@]2(O)CC[C@@]3(O)[C@@H]4[C@@H](O)[C@@H](O)[C@@]5(O)CC=CC(=O)[C@]5(C)[C@H]4CC[C@]23C)C1
2. CC(=O)OC1C[C@H](O)CC2=CC[C@H]3[C@@H]4CC[C@H]([C@@](C)(O)[C@@H](O)C[C@@H]5COC(=O)[C@@H]5C)[C@@]4(C)CC[C@@H]3[C@]21C (some centres not stated)

A:
44.6 µM
11.8 µM
